Hello, the source for this data is patent US7132420B2, in case you need it.

Target: HIV-1 protease (Human immunodeficiency virus type 1 group M subtype B, UniProt P04585)
Test: HIV protease assay (Ki)
Assay type: biochemical
Details: read-out: HIV-1 Ki; Table 2

# mol, Ki (pM)
rows = [
    ("Cc1cccc(C)c1OCC(=O)N[C@@H](Cc1ccccc1)[C@@H](O)C[C@H](CC(C)C)NC(=O)OC(C)(C)C", 9),
]

----------
The next entries give measured Ki for cathepsin D (Homo sapiens, UniProt P07339).
measured parameter: Ki (nM)

# compound, result
data = [
    ("Cc1cccc(C)c1OCC(=O)N[C@@H](Cc1ccccc1)[C@@H](O)C[C@H](CC(C)C)NC(=O)OC(C)(C)C [(15)]", 6.1),
    ("Cc1cccc(C)c1OCC(=O)N[C@@H](Cc1ccccc1)[C@@H](O)C[C@H](CC(C)C)NC(=O)N1CCOCC1 [(27)]", 6.1),
    ("Cc1cccc(C)c1OCC(=O)N[C@@H](Cc1ccccc1)[C@@H](O)C[C@H](CC(C)C)NC(=O)[C@@H](NC(=O)OCc1ccccn1)C(C)C [(30)]", 3300),
    ("Cc1cccc(C)c1OCC(=O)N[C@@H](Cc1ccccc1)[C@@H](O)C[C@H](CC(C)C)NC(=O)[C@@H]1CCNC(=O)N1 [(29)]", 305),
]

----------
Assay: Rat IV pharmacokinetics
Type: in vivo, rats
Details: IV about 5 mg/kg
Each entry below carries its reported Rat IV t1/2.
measured parameter: Rat IV t1/2 (min)

# molecule, result
measured = [
    ("CC(C)C[C@@H](C[C@H](O)[C@H](Cc1ccccc1)NC(=O)OCc1cncs1)NC(=O)[C@H](C(C)C)N1CCCNC1=O [Compound (19)]", 18),
    ("Cc1cccc(C)c1OCC(=O)N[C@@H](Cc1ccccc1)[C@@H](O)C[C@H](CC(C)C)NC(=O)[C@@H](NC(=O)N1CCOCC1)C(C)C [(45)]", 20),
    ("Cc1cccc(C)c1OCC(=O)N[C@@H](Cc1ccccc1)[C@@H](O)C[C@H](CC(C)C)NC(=O)[C@H](C(C)C)N1CCCNC1=O [(16)]", 27),
    ("Cc1cccc(C)c1OCC(=O)N[C@@H](CC(C)C)C[C@H](O)[C@H](Cc1ccccc1)NC(=O)[C@H](C(C)C)N1CCCNC1=O [(43)]", 28),
]

----------
Each entry below carries its reported Ki.
Molecular target: 82F/84V mutant HIV-1 protease (Human immunodeficiency virus type 1 group M subtype B, UniProt P04585, I572V/V570F)
Format: biochemical
Conditions: Table 1, in nM
Description: This example illustrates the HIV-1 protease inhibition activity (Ki), HIV-1 antiviral data (EC50), and the toxicity against normal cells (IC50), for particular compounds of formula (I). The HIV protease assay was done according to the protocol described in Kageyama et al, Antimicrob. Agents Chemother., 37, 272 (1993). The HIV antiviral assay was done according to the protocol described in Weislow et al., J. National Cancer Inst. 81, 577 (1989).

# compound, Ki [nM]
data = [
    ("Cc1cccc(C)c1OCC(=O)N[C@@H](Cc1ccccc1)[C@@H](O)C[C@H](CC(C)C)NC(=O)O[C@H]1CCOC1 [(26)]", 2.7),
    ("CC(C)C[C@@H](C[C@H](O)[C@H](Cc1ccccc1)NC(=O)O[C@H]1CCOC1)NC(=O)[C@H](C(C)C)N1CCCNC1=O [(35)]", 3.2),
]
